Test system: Rice Brown Plant Hopper (Nilaparvata lugens)
assay.procedure: CE.2 Rice brown plant hopper, comparative test
Assay type: in vivo
experimental.context: 10 ppm, after 72 hours, read-out: % mortality in comparison to untreated controls
Please provide measured mortality at 10 ppm for the entries that follow.
Answers are plain numbers, in %.

>  <compound>
Cc1cc(C2=NSC(c3cc(Cl)cc(Cl)c3)(C(F)(F)F)C2)ccc1C(=O)NC1CCN(CC(F)(F)F)C1=O (stereo not shown) [No. 2-195 of WO 2013/092943, reference compound]

>  <mortality at 10 ppm, %>
25

$$$$
>  <compound>
CCN1CCC(NC(=O)c2ccc(C3=CCC(c4ccc(F)c(Cl)c4)(C(F)(F)F)C3)cc2Cl)C1=O (stereo not shown)

>  <mortality at 10 ppm, %>
25

$$$$
>  <compound>
Cc1cc(C2=NSC(c3cc(Cl)cc(Cl)c3)(C(F)(F)F)C2)ccc1C(=O)NC1CCN(C)C1=O (stereo not shown)

>  <mortality at 10 ppm, %>
0

$$$$

Please find the next compound below.
Give mortality at 10 ppm for this entry on Rice Brown Plant Hopper (Nilaparvata lugens): CCN1C(=O)C[C@@H](NC(=O)c2ccc(C3=NOC(c4ccc(F)c(Cl)c4)(C(F)(F)F)C3)cc2Cl)C1=O (stereo partly shown)
75

###

System: Green Peach Aphid (Myzus persicae)
assay.procedure: B.2 Green peach aphid, artificial diet, systemic
Format: in vivo
experimental.context: 72 h, read-out: mortality in comparison with untreated controls
Excerpt: B.2 Green Peach Aphid (Myzus persicae) For evaluating control of green peach aphid (Myzus persicae) through systemic means the test unit consisted of 96-well-microtiter plates containing liquid artificial diet under an artificial mem brane. The compounds were formulated using a solution containing 75% v/v water and 25% v/v DMSO. […] After application, 5-8 adult aphids were placed on the artificial membrane inside the microtiter plate wells. […] Aphid mortality and fecundity was then visually assessed.
assay.readout: mortality at 2500 ppm

Worked cases, answers included:
>  <compound>
O=C(N[C@@H]1CC(=O)N(C2CC2)C1=O)c1ccc(C2=NO[C@@](c3cc(Cl)c(F)c(Cl)c3)(C(F)(F)F)C2)cc1Cl

>  <system.under.test>
Green Peach Aphid (Myzus persicae)

>  <mortality at 2500 ppm>
> 75%

$$$$
>  <compound>
CCN1C(=O)C[C@@H](NC(=O)c2ccc(C3=NOC(c4cc(Cl)c(F)c(Cl)c4)(C(F)(F)F)C3)cc2C)C1=O (stereo partly drawn)

>  <system.under.test>
Green Peach Aphid (Myzus persicae)

>  <mortality at 2500 ppm>
> 75%

$$$$

Please find the next compound below.
Fill in reported mortality at 2500 ppm for this entry: CCN1C(=O)C[C@@H](NC(=O)c2ccc(C3=NO[C@@](c4cc(Cl)c(F)c(Cl)c4)(C(F)(F)F)C3)cc2Cl)C1=O
> 75%
